Molecular target: UniProt P08243
Sequence (P08243 2-561): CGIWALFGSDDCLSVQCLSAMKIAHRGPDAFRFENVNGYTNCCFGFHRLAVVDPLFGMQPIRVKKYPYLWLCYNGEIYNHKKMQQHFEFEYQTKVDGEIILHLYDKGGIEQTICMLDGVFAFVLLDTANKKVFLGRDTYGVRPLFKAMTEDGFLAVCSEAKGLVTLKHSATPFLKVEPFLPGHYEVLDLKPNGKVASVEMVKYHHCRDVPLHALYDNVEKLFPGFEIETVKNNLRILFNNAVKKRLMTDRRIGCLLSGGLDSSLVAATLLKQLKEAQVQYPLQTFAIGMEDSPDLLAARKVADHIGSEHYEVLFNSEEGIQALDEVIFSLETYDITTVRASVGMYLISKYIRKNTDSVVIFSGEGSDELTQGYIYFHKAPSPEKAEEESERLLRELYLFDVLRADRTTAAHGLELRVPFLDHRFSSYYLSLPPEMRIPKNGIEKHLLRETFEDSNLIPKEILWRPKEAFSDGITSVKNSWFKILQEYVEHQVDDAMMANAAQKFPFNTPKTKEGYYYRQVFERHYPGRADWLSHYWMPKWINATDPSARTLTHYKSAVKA
recordedMetric: IC50 (nM)
Answer format: numeric, nM implied, no suffix.

Input CC[C@H](N)C(=O)N1C[C@@H](c2ccc(F)cc2)[C@H](O)[C@@H]1C(=O)NC(c1ccccc1)c1ccccc1 . Output IC50: 500
